Origin of measurements: patent US20160115136A1

system.name: glutamate racemase (GR) from B. subtilis (Bacillus subtilis, UniProt P94556)
Sequence (P94556 whole entry): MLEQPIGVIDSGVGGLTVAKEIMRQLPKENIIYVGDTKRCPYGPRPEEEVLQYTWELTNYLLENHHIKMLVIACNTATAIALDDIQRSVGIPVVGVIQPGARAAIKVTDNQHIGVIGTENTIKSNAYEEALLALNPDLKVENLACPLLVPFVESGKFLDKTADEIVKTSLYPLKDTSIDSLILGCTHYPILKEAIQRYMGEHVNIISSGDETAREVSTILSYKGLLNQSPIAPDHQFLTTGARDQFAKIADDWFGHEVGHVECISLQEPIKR
pIC50: −log10 of the molar value.
endpoint: pIC50

>>> recorded_value("O=S(=O)(O)c1nc2ccccc2[nH]1")
3.60

###

compounds and their reported LiPE (lipophilic efficiency)
system.name: glutamate racemase (GR) from B. subtilis (Bacillus subtilis)
particulars: from log(Ki) and calculated logP (MarvinSketch)
endpoint: LiPE (lipophilic efficiency)

>>> recorded_value("O=C(c1ccccc1)c1ccc2[nH]c(S(=O)(=O)O)nc2c1 [Compound 24]")
1.9
>>> recorded_value("O=S(=O)(O)c1nc2ccc(Cl)cc2[nH]1 [Compound 26]")
4.5
>>> recorded_value("O=S(=O)(O)c1nc2cc(S(=O)(=O)N3CCOCC3)ccc2[nH]1 [Compound 29]")
6.6
>>> recorded_value("Cc1ccc2[nH]c(S(=O)(=O)O)nc2c1 [Compound 15]")
4.4
>>> recorded_value("CCCCNS(=O)(=O)c1ccc2[nH]c(S(=O)(=O)O)nc2c1 [Compound 18]")
5.0
